tested on: Calf thymus DNA; conditions: Bos taurus
Description: Association constant measured for binding towards poly[d(A-T)] of DNA in calf thymus
Attribute Measured: Log K

COc1cc(NS(C)(=O)=O)ccc1Nc1c2ccccc2nc2cc(N)ccc12
6.21
CCc1ccc2c(Nc3ccc(NS(C)(=O)=O)cc3OC)c3ccccc3nc2c1
5.66
COc1cc(NS(C)(=O)=O)ccc1Nc1c2ccccc2nc2c(C(=O)NCC(N)=O)cccc12
5.39
COc1cc(NS(C)(=O)=O)ccc1Nc1c2ccccc2nc2c(C#N)cccc12
5.01
COc1cc(NS(C)(=O)=O)ccc1Nc1c2ccccc2nc2cnccc12
5.09
COc1cc(NS(C)(=O)=O)ccc1Nc1c2ccccc2nc2cc(NC(C)=O)ccc12
6.24
COc1cc(NS(C)(=O)=O)ccc1Nc1c2ccccc2nc2c(OCCCC(N)=O)cccc12
5.74
COc1cc(NS(C)(=O)=O)ccc1Nc1c2ccccc2nc2ccc(C(C)C)cc12
5.39
COc1cc(NS(C)(=O)=O)ccc1Nc1c2ccccc2nc2c(C(=O)NCC(O)CO)cccc12 (stereo not given)
5.26
COc1cc(NS(C)(=O)=O)ccc1Nc1c2ccccc2nc2ccc(C)cc12
5.35

###

test system: Calf thymus DNA; conditions: Bos taurus
Attribute Measured: Log K

COc1cc(NS(C)(=O)=O)ccc1Nc1c2ccccc2nc2ncccc12
5.27
COc1cc(NS(C)(=O)=O)ccc1Nc1c2ccccc2nc2c(OCC(O)CO)cccc12 (stereo not given)
5.9
COc1cc(NS(C)(=O)=O)ccc1Nc1c2ccccc2nc2c(Br)cccc12
5.57
COc1cc(NS(C)(=O)=O)ccc1Nc1c2ccccc2nc2c(C(N)=O)cccc12
5.47
COc1cc(NS(C)(=O)=O)ccc1Nc1c2ccccc2nc2ccc(F)cc12
5.28

###

assay: physchem
Description: Ionisation constant (pKa)
Attribute Measured: pKa

P = COc1cc(NS(C)(=O)=O)ccc1Nc1c2ccccc2nc2cc(C(N)=O)ccc12
Q = CNc1ccc2c(Nc3ccc(NS(C)(=O)=O)cc3OC)c3ccccc3nc2c1
Lab notebook, comparison: P versus Q , higher pKa goes to which? State your choice using its label.
Q

a = COc1cc(NS(C)(=O)=O)ccc1Nc1c2ccccc2nc2c(C(=O)NCCO)cccc12
b = COc1cc(NS(C)(=O)=O)ccc1Nc1c2ccccc2nc2cc(N)ccc12
Hello, I am sorting some records. Could you say if a or b has the smaller pKa value? Kindly give the label for the entry you pick.
a
(a: 6.27, b: 9.92)

###

tested on: Calf thymus DNA; conditions: Bos taurus
Attribute Measured: Log K

COc1cc(NS(C)(=O)=O)ccc1Nc1c2ccccc2nc2cc(C(F)(F)F)ccc12
5.24
COc1cc(NS(C)(=O)=O)ccc1Nc1c2ccccc2nc2cc(Br)ccc12
6.29
CCCCNC(=O)c1cccc2c(Nc3ccc(NS(C)(=O)=O)cc3OC)c3ccccc3nc12
5.4
COc1cc(NS(C)(=O)=O)ccc1Nc1c2ccccc2nc2c(C)cccc12
6.03
COC(=O)Nc1ccc2c(Nc3ccc(NS(C)(=O)=O)cc3OC)c3ccccc3nc2c1
6.37
COc1cc(NS(C)(=O)=O)ccc1Nc1c2ccccc2nc2c(C(=O)NCC(C)O)cccc12 (configuration not stated)
5.34
COc1cc(NS(C)(=O)=O)ccc1Nc1c2ccccc2nc2cc(C(N)=O)ccc12
5.66
COc1cc(NS(C)(=O)=O)ccc1Nc1c2ccccc2nc2c(OCCO)cccc12
5.74
COc1cc(NS(C)(=O)=O)ccc1Nc1c2ccccc2nc2cc(F)ccc12
5.54
COc1cc(NS(C)(=O)=O)ccc1Nc1c2ccccc2nc2c(-c3ccccc3)cccc12
5.6
COc1cc(NS(C)(=O)=O)ccc1Nc1c2ccccc2nc2cc([N+](=O)[O-])ccc12
5.65
CCOc1cccc2c(Nc3ccc(NS(C)(=O)=O)cc3OC)c3ccccc3nc12
5.77
COc1cc(NS(C)(=O)=O)ccc1Nc1c2ccccc2nc2cc(Cl)ccc12
6.06
COc1cc(NS(C)(=O)=O)ccc1Nc1c2ccccc2nc2c(C(=O)N3CCOCC3)cccc12
4.96
COc1cc(NS(C)(=O)=O)ccc1Nc1c2ccccc2nc2c(C(=O)N(C)C)cccc12
5.04
COc1cc(NS(C)(=O)=O)ccc1Nc1c2ccccc2nc2ccc(I)cc12
5.7
CNc1ccc2c(Nc3ccc(NS(C)(=O)=O)cc3OC)c3ccccc3nc2c1
6.17
COc1cc(NS(C)(=O)=O)ccc1Nc1c2ccccc2nc2c(OC)cccc12
5.94
COc1cc(NS(C)(=O)=O)ccc1Nc1c2ccccc2nc2cc(C)ccc12
5.95
CNC(=O)c1cccc2c(Nc3ccc(NS(C)(=O)=O)cc3OC)c3ccccc3nc12
5.54
COc1cc(NS(C)(=O)=O)ccc1Nc1c2ccccc2nc2cc(C#N)ccc12
5.65
COc1cc(NS(C)(=O)=O)ccc1Nc1c2ccccc2nc2cc(I)ccc12
6.35
COc1cc(NS(C)(=O)=O)ccc1Nc1c2ccccc2nc2c(Cl)cccc12
5.76
COc1ccc2c(Nc3ccc(NS(C)(=O)=O)cc3OC)c3ccccc3nc2c1
5.83
COc1cc(NS(C)(=O)=O)ccc1Nc1c2ccccc2nc2c(C(=O)NCCCO)cccc12
5.4
COc1cc(NS(C)(=O)=O)ccc1Nc1c2ccccc2nc2c(F)cccc12
5.65
COc1cc(NS(C)(=O)=O)ccc1Nc1c2ccccc2nc2c([N+](=O)[O-])cccc12
5.2
CNC(=O)COc1cccc2c(Nc3ccc(NS(C)(=O)=O)cc3OC)c3ccccc3nc12
5.8
COc1cc(NS(C)(=O)=O)ccc1Nc1c2ccccc2nc2c(C(=O)NCCO)cccc12
5.42
COc1cc(NS(C)(=O)=O)ccc1Nc1c2ccccc2nc2ccc(N)cc12
5.95
COc1cc(NS(C)(=O)=O)ccc1Nc1c2ccccc2nc2cc(C(C)C)ccc12
5.46
C=NC(=O)CCc1cccc2c(Nc3ccc(NS(C)(=O)=O)cc3OC)c3ccccc3nc12
5.65

###

assay: physchem
Attribute Measured: pKa

COc1cc(NS(C)(=O)=O)ccc1Nc1c2ccccc2nc2c(OCC(O)CO)cccc12 (centres undefined)
7.3
COc1cc(NS(C)(=O)=O)ccc1Nc1c2ccccc2nc2ccc(F)cc12
6.71
COc1cc(NS(C)(=O)=O)ccc1Nc1c2ccccc2nc2cc(Cl)ccc12
6.84
CNC(=O)COc1cccc2c(Nc3ccc(NS(C)(=O)=O)cc3OC)c3ccccc3nc12
7.35
COC(=O)Nc1ccc2c(Nc3ccc(NS(C)(=O)=O)cc3OC)c3ccccc3nc2c1
7.77
COc1cc(NS(C)(=O)=O)ccc1Nc1c2ccccc2nc2c(F)cccc12
6.33
COc1cc(NS(C)(=O)=O)ccc1Nc1c2ccccc2nc2c(C(=O)N3CCOCC3)cccc12
6.03
COc1cc(NS(C)(=O)=O)ccc1Nc1c2ccccc2nc2cc(Br)ccc12
6.84
CCOc1cccc2c(Nc3ccc(NS(C)(=O)=O)cc3OC)c3ccccc3nc12
7.37
COc1ccc2c(Nc3ccc(NS(C)(=O)=O)cc3OC)c3ccccc3nc2c1
7.81
COc1cc(NS(C)(=O)=O)ccc1Nc1c2ccccc2nc2cc(I)ccc12
6.77
COc1cc(NS(C)(=O)=O)ccc1Nc1c2ccccc2nc2cc(C(F)(F)F)ccc12
6.24
COc1cc(NS(C)(=O)=O)ccc1Nc1c2ccccc2nc2c(Cl)cccc12
6.11
COc1cc(NS(C)(=O)=O)ccc1Nc1c2ccccc2nc2c(OCCO)cccc12
7.36
COc1cc(NS(C)(=O)=O)ccc1Nc1c2ccccc2nc2c(OC)cccc12
7.39
COc1cc(NS(C)(=O)=O)ccc1Nc1c2ccccc2nc2c([N+](=O)[O-])cccc12
5.05
COc1cc(NS(C)(=O)=O)ccc1Nc1c2ccccc2nc2cc(C)ccc12
7.7
COc1cc(NS(C)(=O)=O)ccc1Nc1c2ccccc2nc2c(C(=O)NCCCO)cccc12
6.3
COc1cc(NS(C)(=O)=O)ccc1Nc1c2ccccc2nc2cnccc12
5.53
COc1cc(NS(C)(=O)=O)ccc1Nc1c2ccccc2nc2cc(C#N)ccc12
5.94
C=NC(=O)CCc1cccc2c(Nc3ccc(NS(C)(=O)=O)cc3OC)c3ccccc3nc12
7.15
COc1cc(NS(C)(=O)=O)ccc1Nc1c2ccccc2nc2c(OCCCC(N)=O)cccc12
7.36
COc1cc(NS(C)(=O)=O)ccc1Nc1c2ccccc2nc2cc(C(C)C)ccc12
7.66
COc1cc(NS(C)(=O)=O)ccc1Nc1c2ccccc2nc2c(C)cccc12
7.39
COc1cc(NS(C)(=O)=O)ccc1Nc1c2ccccc2nc2c(Br)cccc12
6.09
COc1cc(NS(C)(=O)=O)ccc1Nc1c2ccccc2nc2c(-c3ccccc3)cccc12
7.02
COc1cc(NS(C)(=O)=O)ccc1Nc1c2ccccc2nc2ccc(N)cc12
7.37
COc1cc(NS(C)(=O)=O)ccc1Nc1c2ccccc2nc2c(C(=O)NCC(C)O)cccc12 (centres undefined)
6.2
COc1cc(NS(C)(=O)=O)ccc1Nc1c2ccccc2nc2ccc(C(C)C)cc12
7.4
COc1cc(NS(C)(=O)=O)ccc1Nc1c2ccccc2nc2c(C#N)cccc12
4.87
COc1cc(NS(C)(=O)=O)ccc1Nc1c2ccccc2nc2cc(F)ccc12
7.05
COc1cc(NS(C)(=O)=O)ccc1Nc1c2ccccc2nc2ccc(C)cc12
7.45
CCc1ccc2c(Nc3ccc(NS(C)(=O)=O)cc3OC)c3ccccc3nc2c1
7.65
COc1cc(NS(C)(=O)=O)ccc1Nc1c2ccccc2nc2ccc(I)cc12
6.6
